FYI, the data here is from the RNAGym collection of RNA variant scans (doi:10.1093/nar/gkz1192).

B1: CPEB3 Ribozyme (parent)
chain: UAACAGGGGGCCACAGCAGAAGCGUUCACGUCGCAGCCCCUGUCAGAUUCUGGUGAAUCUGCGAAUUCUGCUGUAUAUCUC

variants of: B1; experiment: self-cleavage, relative activity (ratio to wild type); higher = more cleavage; in vitro, sequencing
// Not met strictly below 0.4 in self-cleavage; Met otherwise

Examples with answers:
Is self-cleavage for A5U A47G at or above 0.4?
Met

Is self-cleavage for A56G U72A at or above 0.4?
Met

Is self-cleavage for C11U A13U at or above 0.4?
Met

Is self-cleavage for C11G A45G at or above 0.4?
Not met

Is self-cleavage for G10A G46U at or above 0.4?
Not met

Further cases:
Is self-cleavage for C34U G63U at or above 0.4?
Not met
